Documented EC50 across a set of compounds
tested on: 4 cell lines (A375, MDA-MB-231, PC-3, SK-OV-3); assay: Growth inhibition with DFMO, average over 4 cell lines; assay type: cell-based; details: Table 3; average over cell lines, with DFMO; read-out: AVG. EC50
Recorded Endpoint: EC50 (µM)

INSERT INTO results (compound, measured) VALUES
  ('CCCCCCC(=O)NCCCC[C@@H](N)C(=O)NCCCNCCCCNCCCN', 3.55),
  ('CCCCCCCCCCCCCCCCC(=O)NCCCC[C@H](N)C(=O)NCCCNCCCCNCCCN', 0.053),
  ('CC(C)(C)CNCCCC[C@@H](N)C(=O)NCCCNCCCCNCCCN', 3.14),
  ('CC(C)C(=O)NCCCC[C@@H](N)C(=O)NCCCNCCCCNCCCN', 8.58),
  ('CCCCCCCCCCCCCCCC(=O)NC(CCCCN)C(=O)NCCCNCCCCNCCCN (stereo not drawn)', 1.26),
  ('CCCCCCCC(=O)NC(CCCCN)C(=O)NCCCNCCCCNCCCN (stereo not drawn)', 9.54),
  ('CCCC/C=C\CCCCCCCCCCNCCCC[C@H](N)C(=O)NCCCNCCCCNCCCN', 0.079),
  ('Cc1cc(C)c(S(=O)(=O)NC(CCCCN)C(=O)NCCCNCCCCNCCCN)c(C)c1 (stereo not drawn)', 9.74),
  ('CCCCCCCC/C=C\CCCCCCCC(=O)NCCCC[C@@H](N)C(=O)NCCCNCCCCNCCCN', 0.583);

----------
test system: PC-3; test: Growth inhibition assay, PA alone, PC-3; assay type: cell-based; conditions: Homo sapiens, PC-3, 144 h, PA alone (no DFMO), six days; repeat determinations; read-out: Cell Line IC50 PC-3
Recorded Endpoint: IC50

INSERT INTO measurements (molecule, measured) VALUES
  ('CCCCCCNCCCC[C@@H](N)C(=O)NCCCNCCCCNCCCN [IVB5]', '> 100 µM'),
  ('CC(C)[C@@H]1CC[C@@H](C)CC1NCCCC[C@@H](N)C(=O)NCCCNCCCCNCCCN (stereo partly drawn) [VB28]', '> 100 µM'),
  ('NCCCNCCCCNCCCNC(=O)[C@H](N)CCCCNC(=O)c1ccccc1 [IB24]', '> 30 µM'),
  ('CCCCCCCCCCCCCCCCCC(=O)NCCCC[C@@H](N)C(=O)NCCCNCCCCNCCCN [IB2]', '> 3 µM'),
  ('NCCCNCCCCNCCCNC(=O)[C@H](N)CCCCNC(=O)C(c1ccccc1)c1ccccc1 [IB29]', '> 100 µM'),
  ('CC(C)(C)CCNCCCC[C@@H](N)C(=O)NCCCNCCCCNCCCN [IVB22]', '> 100 µM'),
  ('CC(C)(C)CC(=O)NCCCC[C@@H](N)C(=O)NCCCNCCCCNCCCN [IB36]', '> 100 µM'),
  ('CCCCCCC(=O)NCCCC[C@@H](N)C(=O)NCCCNCCCCNCCCN [IB8]', '> 100 µM'),
  ('CC(C)CNCCCC[C@@H](N)C(=O)NCCCNCCCCNCCCN [IVB23]', '> 100 µM');

----------
system: A375; assay: Growth inhibition assay (MTS/PMS) with DFMO, A375; type: cell-based; details: in the presence of DFMO (1-5 mM), 1 mM AG, 0.5 μM SPD, six days; repeat determinations; read-out: Cell Line EC50 A375
pEC50: −log10 of the molar value.
Recorded Endpoint: pEC50

INSERT INTO results (compound, recorded_endpoint, qualifying_sign, measured) VALUES
  ('Cc1cc(C)c(S(=O)(=O)NCCCC[C@H](N)C(=O)NCCCNCCCCNCCCN)c(C)c1', 'pEC50', '=', 6.20),
  ('Cc1cc(C)c(S(=O)(=O)NC(CCCCN)C(=O)NCCCNCCCCNCCCN)c(C)c1 (stereo not drawn)', 'pEC50', '=', 5.23),
  ('CCCCCCCC/C=C/CCCCCCCC(=O)NCCCC[C@H](N)C(=O)NCCCNCCCCNCCCN', 'pEC50', '=', 8.00),
  ('CCCCC/C=C\C/C=C\CCCCCCCC(=O)NCCCC[C@H](N)C(=O)NCCCNCCCCNCCCN', 'pEC50', '=', 7.08),
  ('CCCCCCCCCCCCCCCCNCCCC[C@H](N)C(=O)NCCCNCCCCNCCCN', 'pEC50', '=', 8.00),
  ('CCS(=O)(=O)NCCCC[C@H](N)C(=O)NCCCNCCCCNCCCN', 'pEC50', '<', 4.52),
  ('CCS(=O)(=O)NCCCC[C@@H](N)C(=O)NCCCNCCCCNCCCN', 'pEC50', '=', 5.14),
  ('CCCCCCCCCCCCCCCC(=O)NC(CCCCN)C(=O)NCCCNCCCCNCCCN (stereo not drawn)', 'pEC50', '=', 6.36),
  ('CCCCCCCC/C=C\CCCCCCCC(=O)NCCCC[C@@H](N)C(=O)NCCCNCCCCNCCCN', 'pEC50', '=', 6.77),
  ('CCCCCCCNCCCC[C@@H](NCCCCCCC)C(=O)NCCCNCCCCNCCCN', 'pEC50', '=', 6.03),
  ('NCCCNCCCCNCCCNC(=O)[C@@H](N)CCCCNC(=O)c1ccccc1', 'pEC50', '=', 5.81),
  ('C[C@H](CCC(=O)NCCCC[C@H](N)C(=O)NCCCNCCCCNCCCN)[C@H]1CC[C@H]2[C@@H]3[C@H](O)C[C@@H]4C[C@H](O)CC[C@]4(C)[C@H]3C[C@H](O)[C@]12C', 'pEC50', '=', 7.06),
  ('CCCCC/C=C/C/C=C/CCCCCCCC(=O)NCCCC[C@H](N)C(=O)NCCCNCCCCNCCCN', 'pEC50', '=', 7.74),
  ('NCCCCC(NC(=O)c1ccco1)C(=O)NCCCNCCCCNCCCN (stereo not drawn)', 'pEC50', '=', 5.06),
  ('NCCCC[C@H](NC(=O)c1ccccc1)C(=O)NCCCNCCCCNCCCN', 'pEC50', '=', 5.22),
  ('NCCCNCCCCNCCCNC(=O)[C@@H](N)CCCCNCC1CC2C=CC1C2 (stereo partly drawn)', 'pEC50', '=', 5.98),
  ('CC(C)CC(=O)NCCCC[C@@H](N)C(=O)NCCCNCCCCNCCCN', 'pEC50', '<', 4.00),
  ('CCCCCCCNCCCC[C@H](N)C(=O)NCCCNCCCCNCCCN', 'pEC50', '=', 6.27);
